Overview of reported EP2 Binding % Inh across a group of compounds:
- targetDesc: EP2 (Homo sapiens)
- Sequence (P43116 whole entry): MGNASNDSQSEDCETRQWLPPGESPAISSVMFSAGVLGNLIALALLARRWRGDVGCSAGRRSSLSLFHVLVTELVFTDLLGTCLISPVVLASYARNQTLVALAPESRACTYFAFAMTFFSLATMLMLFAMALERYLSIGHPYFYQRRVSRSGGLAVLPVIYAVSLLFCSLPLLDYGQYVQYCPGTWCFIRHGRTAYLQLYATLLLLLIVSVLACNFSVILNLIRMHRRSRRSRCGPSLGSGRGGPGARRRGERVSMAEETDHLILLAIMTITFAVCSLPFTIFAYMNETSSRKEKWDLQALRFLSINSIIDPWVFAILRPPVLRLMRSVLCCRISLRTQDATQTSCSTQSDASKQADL
- experimentalDetails: EP2 binding assay
measuredEndpoint: EP2 Binding % Inh (%)

1. C[C@@H](O)CCC[C@H](O)/C=C/[C@H]1[C@H](O)CC(=O)[C@@H]1C/C=C\CCCC(=O)O
92
2. C[C@H](O)CCC[C@H](O)/C=C/[C@@H]1[C@@H](CCCc2ccc(C(=O)O)s2)[C@H](Cl)C[C@H]1O
91
3. C[C@@H](O)CCC[C@H](O)/C=C/[C@H]1[C@H](O)CC(=O)[C@@H]1CCCCCCC(=O)O
87
4. C[C@@H](O)CCC[C@H](O)/C=C/[C@@H]1[C@@H](CCCc2ccc(C(=O)O)s2)[C@H](Cl)C[C@H]1O
99
